Measured logD, listed per entry.
ASSAY_TEXT: Partition coefficient (logD) (HPLC)
Type: physicochemical
TEST_CONDITIONS: octanol/water
No unit in the answer, please; the number alone is enough.

{"COMPOUND": "Clc1ccccc1 [CHLOROBENZENE]", "EXPERIMENTAL_ENDPOINT": "logD", "REPORTED_RESULT": 1.05}
{"COMPOUND": "CN(C)CCC(c1ccc(Cl)cc1)c1ccccn1 (stereo unspecified) [CHLORPHENIRAMINE]", "EXPERIMENTAL_ENDPOINT": "logD", "REPORTED_RESULT": 0.466}
{"COMPOUND": "CN(C)CCC=C1c2ccccc2CCc2ccccc21 [AMITRIPTYLINE]", "EXPERIMENTAL_ENDPOINT": "logD", "REPORTED_RESULT": 2.83}

Tell me the measured logD of COc1ccccc1 [ANISOLE] , please.
0.353

Tell me the measured logD of CN1CCN(CCCN2c3ccccc3Sc3ccc(C(F)(F)F)cc32)CC1 [TRIFLUOPERAZINE] , please.
1.77

Tell me the measured logD of CN1CCN(C2=Nc3cc(Cl)ccc3Nc3ccccc32)CC1 [CLOZAPINE] , please.
1.4

----------
Measured Log k', listed per entry.
No unit in the answer, please; the number alone is enough.

Examples with their reported Log k' follow.
{"COMPOUND": "CNCCC=C1c2ccccc2CCc2ccccc21", "Log k'": 0.349}
{"COMPOUND": "CN(C)CCCN1c2ccccc2Sc2ccc(Cl)cc21", "Log k'": 1.086}
{"COMPOUND": "CN1CCN(C2=Nc3cc(Cl)ccc3Nc3ccccc32)CC1", "Log k'": 0.817}
{"COMPOUND": "O=C(NC1CCN(CCc2c[nH]c3ccccc23)CC1)c1ccccc1", "Log k'": -0.055}
{"COMPOUND": "CN(C)CCC=C1c2ccccc2COc2ccccc21 [DOXEPIN]", "Log k'": 0.33}

Tell me the measured Log k' of `CN1CCC(=C2c3ccccc3C=Cc3ccccc32)CC1` , please.
1.037

Tell me the measured Log k' of `CN(C)CCCN1c2ccccc2Sc2ccccc21` , please.
0.505

----------
ASSAY_TEXT: Partition coefficient (logD) (HPLC)
Format: physicochemical
TEST_CONDITIONS: octanol/water
EXPERIMENTAL_ENDPOINT: logD
No unit in the answer, please; the number alone is enough.

Examples with their reported logD follow.
{"MOLECULE": "CN(C)CCC(c1ccc(Cl)cc1)c1ccccn1 (centres undefined)", "logD": 0.466}
{"MOLECULE": "Clc1ccccc1", "logD": 1.56}
{"MOLECULE": "CN1CCN(C2=Nc3cc(Cl)ccc3Nc3ccccc32)CC1", "logD": 1.66}

Here is another molecule to look at.
Tell me the measured logD of `COc1ccccc1` , please.
0.872

----------
Measured pKa, listed per entry.
ASSAY_TEXT: Partition coefficient (logD7.4)
TEST_CONDITIONS: octanol/water, pH 7.4
No unit in the answer, please; the number alone is enough.

Examples with their reported pKa follow.
{"MOL_SMILES": "OCCN1CCN(CCCN2c3ccccc3Sc3ccc(Cl)cc32)CC1", "pKa": 7.8}
{"MOL_SMILES": "CN(C)CCCN1c2ccccc2Sc2ccccc21", "pKa": 9.42}
{"MOL_SMILES": "CN1CCN(CCCN2c3ccccc3Sc3ccc(Cl)cc32)CC1", "pKa": 8.1}

Tell me the measured pKa of `CNCCC=C1c2ccccc2CCc2ccccc21` , please.
9.73

Tell me the measured pKa of `CN(C)CCC=C1c2ccccc2CCc2ccccc21` , please.
9.4

Tell me the measured pKa of `CN1CCN(CCCN2c3ccccc3Sc3ccc(C(F)(F)F)cc32)CC1` , please.
8.1
